# System: BT-474
# procedure_summary: normalised response (% of control), CellTox Green; higher = less cell death (100 = DMSO, 0 = benzethonium chloride kill control)
# condition_label: incubation time: 72 h
property_label: normalised response (%)
One number for each entry, in %.

Use the examples below as a reference point.
molecule	measurement_target	normalised response / %
COc1ccc(-c2ccc3c(N4CCOC[C@@H]4C)nc(N4CCOC[C@@H]4C)nc3n2)cc1CO [AZD8055] (100 nM)	BT-474	96.5
O=C(O)CCCc1ccc(N(CCCl)CCCl)cc1 [Chlorambucil] (100 nM)	BT-474	101
C[C@]12CC[C@H](O)CC1=CC[C@@H]1[C@@H]2CC[C@]2(C)C(c3cccnc3)=CC[C@@H]12 [Abiraterone] (500 nM)	BT-474	103
COc1ccccc1S(=O)(=O)Nc1ccc2c(c1)CN(C)C(=O)N2 [PFI-1] (10000 nM)	BT-474	105
Nc1nc(OCc2cc(Br)cs2)c2[nH]cnc2n1 [Lomeguatrib] (100 nM)	BT-474	102

Okay, here is my list. What is normalised response for each of these?
1. CC[C@]1(O)C[C@H]2CN(CCc3c([nH]c4ccccc34)[C@@](C(=O)OC)(c3cc4c(cc3OC)N(C=O)[C@H]3[C@@](O)(C(=O)OC)[C@H](OC(C)=O)[C@]5(CC)C=CCN6CC[C@]43[C@@H]65)C2)C1 [Vincristine] (1000 nM)
2. C/C(=C\c1csc(C)n1)[C@@H]1C[C@@H]2O[C@]2(C)CCC[C@H](C)[C@H](O)[C@@H](C)C(=O)C(C)(C)[C@@H](O)CC(=O)O1 [Patupilone] (100 nM)

78.7
58.5

Okay, here is my list. What is normalised response for each of these?
1. CN1CCN(CCOc2cc(OC3CCOCC3)c3c(Nc4c(Cl)ccc5c4OCO5)ncnc3c2)CC1 [Saracatinib] (10000 nM)
2. CCCCCCCCc1ccc(CCC(N)(CO)CO)cc1 [Fingolimod] (10000 nM)
3. O=C1NC(=O)[C@@H](c2cn3c4c(cccc24)CCC3)[C@@H]1c1c[nH]c2ccccc12 [Tivantinib] (1000 nM)
4. Cn1cncc1[C@@](N)(c1ccc(Cl)cc1)c1ccc2c(c1)c(-c1cccc(Cl)c1)cc(=O)n2C [Tipifarnib] (1000 nM)
5. NS(=O)(=O)OC[C@@H]1C[C@@H](n2ccc3c(N[C@H]4CCc5ccccc54)ncnc32)C[C@@H]1O [Pevonedistat] (1000 nM)
6. CN(C)CCN1C(=O)c2cccc3cc(N)cc(c23)C1=O [Amonafide] (1000 nM)

42
0.12
76
100
101
99.3

Give the measured normalised response of CN(C)C[C@@H]1CCn2cc(c3ccccc32)C2=C(C(=O)NC2=O)c2cn(c3ccccc23)CCO1 [Ruboxistaurin] (100 nM) .
98.9

---

# System: MDA-MB-436
# procedure_summary: drug sensitivity score (DSS), CellTiter-Blue viability (DSS (AUC-based score)); higher = stronger viability inhibition; extreme values may be limits of the assay
# condition_label: incubation time: 72 h
property_label: drug sensitivity score
Answers are plain numbers.

Use the examples below as a reference point.
molecule	drug sensitivity score
CNNCc1ccc(C(=O)NC(C)C)cc1 [Procarbazine]	0.866
COc1ccc(-c2ccc3c(N4CCOC[C@@H]4C)nc(N4CCOC[C@@H]4C)nc3n2)cc1CO [AZD8055]	15.6
CN(C)CCN1C(=O)c2cccc3cc(N)cc(c23)C1=O [Amonafide]	3.57
Cn1c(=O)n(-c2ccc(C(C)(C)C#N)cc2)c2c3cc(-c4cnc5ccccc5c4)ccc3ncc21 [NVP-BEZ235]	5.52
CC(C)(C#N)c1cc(Cn2cncn2)cc(C(C)(C)C#N)c1 [Anastrozole]	0

Okay, here is my list. What is drug sensitivity score for each of these?
1. Cn1cncc1[C@@](N)(c1ccc(Cl)cc1)c1ccc2c(c1)c(-c1cccc(Cl)c1)cc(=O)n2C [Tipifarnib]
2. C/C(=C\c1csc(C)n1)[C@@H]1C[C@@H]2O[C@]2(C)CCC[C@H](C)[C@H](O)[C@@H](C)C(=O)C(C)(C)[C@@H](O)CC(=O)O1 [Patupilone]

1: 0; 2: 15.4

Data origin: the supplement of paper PMC4862054
